Reference for the values: ChEMBL document CHEMBL3758153

- System: Staphylococcus aureus
- Assay explanation: Antibacterial activity against methicillin-resistant Staphylococcus aureus CBD-635 at 35 ug/mL
- Format: functional, organism-based
The source made the active and inactive calls. The calls are words filed in the database; no cut-off is given here.

| Compound | Activity |
| --- | --- |
| CC(C)C[C@@H]1NC(=O)[C@@H](CC(C)C)NC(=O)C(NC(=O)CCCCCCCCCCCNC(=N)N)CNC(=O)[C@@H](CCCCN)NC(=O)[C@@H](CC(N)=O)NC(=O)[C@@H](Cc2ccccc2)NC1=O (stereo partly drawn) | Active |
| CC(C)C[C@@H]1NC(=O)[C@@H](Cc2c[nH]c3ccccc23)NC(=O)C(NC(=O)CCCCCCCCCCCNC(=N)N)CNC(=O)[C@@H](CCCNC(=N)N)NC(=O)[C@@H](CC(N)=O)NC(=O)[C@@H](Cc2c[nH]c3ccccc23)NC1=O (stereo partly drawn) | Active |
| CC[C@@H](C)[C@H]1NC(=O)[C@H](Cc2ccccc2)NC(=O)[C@@H](CC(C)C)NC(=O)C(NC(=O)CCCCCCCCCCCNC(=N)N)CNC(=O)[C@@H](CCCNC(=N)N)NC(=O)[C@@H](CC(N)=O)NC1=O (stereo partly drawn) | Active |
